Quick reference: AUC(0-t) of the listed items.
test: Mouse pharmacokinetic study; assay type: in vivo; details: female, mouse, plasma; BALB/c mice, PO, 10 mg/kg, 0.5% MC
Give a bare numeral; the unit ng·h/mL is implied.

O=c1[nH]nc(CN[C@H]2C[C@H](C(=O)N3CCN(c4ncc(C(F)(F)F)cn4)CC3)C2)cc1C(F)(F)F [Embodiment 12] = 10700

Could you tell me which AUC(0-t) is on file for O=C(C1CN(Cc2cc(C(F)(F)F)c(=O)[nH]n2)C1)N1CCN(c2ncc(C(F)(F)F)cn2)CC1 [Embodiment 5] ?
52100

====

Quick reference: pIC50 of the listed items.
biological target: PARP7 (Homo sapiens)
Sequence (Q7Z3E1 whole entry): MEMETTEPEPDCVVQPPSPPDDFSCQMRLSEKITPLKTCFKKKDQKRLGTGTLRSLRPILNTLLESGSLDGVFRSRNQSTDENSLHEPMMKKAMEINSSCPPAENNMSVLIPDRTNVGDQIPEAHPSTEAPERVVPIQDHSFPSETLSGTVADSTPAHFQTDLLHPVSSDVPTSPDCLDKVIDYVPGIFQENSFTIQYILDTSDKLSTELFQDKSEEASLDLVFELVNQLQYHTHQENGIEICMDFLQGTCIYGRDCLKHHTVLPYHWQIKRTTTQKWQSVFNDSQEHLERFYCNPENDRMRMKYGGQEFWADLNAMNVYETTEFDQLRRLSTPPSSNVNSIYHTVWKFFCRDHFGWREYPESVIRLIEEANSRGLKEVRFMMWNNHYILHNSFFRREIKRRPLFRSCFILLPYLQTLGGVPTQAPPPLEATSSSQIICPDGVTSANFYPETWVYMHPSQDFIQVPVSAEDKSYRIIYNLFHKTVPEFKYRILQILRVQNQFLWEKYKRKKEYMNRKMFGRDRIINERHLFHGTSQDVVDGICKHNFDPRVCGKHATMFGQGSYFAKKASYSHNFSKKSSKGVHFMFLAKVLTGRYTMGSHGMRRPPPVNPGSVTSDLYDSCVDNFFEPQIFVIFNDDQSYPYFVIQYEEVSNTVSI
pIC50: −log10 of the molar value.

O=C(C1CC2(C1)CN(Cc1c[nH]c(=O)c(C(F)(F)F)c1)C2)N1CCN(c2ncc(C(F)(F)F)cn2)CC1 [Embodiment 21] = 5.00 to 6.00
O=C(c1ccc(NCc2c[nH]c(=O)c(C(F)(F)F)c2)cc1)N1C2CCC1CN(c1ncc(C(F)(F)F)cn1)C2 [Embodiment 7] = 6.00 to 7.00
CC(C)(N[C@H]1C[C@H](C(=O)N2CCN(c3ncc(C(F)(F)F)c4cc[nH]c34)CC2)C1)c1cc(C(F)(F)F)c(=O)[nH]n1 [Embodiment 64] = > 8.00
O=C([C@@H]1CCN(Cc2c[nH]c(=O)c(C(F)(F)F)c2)C1)N1C2CCC1CN(c1ncc(C(F)(F)F)cn1)C2 [Embodiment 10] = 7.00 to 8.00
N#Cc1cc(C(F)(F)F)cnc1N1CCN(C(=O)[C@H]2C[C@H](NCc3cc(C(F)(F)F)c(=O)[nH]n3)C2)CC1 [Embodiment 47] = 7.00 to 8.00

Param readout = pIC50; param system = PARP7 (Homo sapiens); param query = O=C(N1CCN(c2ncc(C(F)(F)F)cn2)CC1)C12CC(NCc3c[nH]c(=O)c(C(F)(F)F)c3)(C1)C2 [Embodiment 25] ; response: value
6.00 to 7.00

Param readout = pIC50; param system = PARP7 (Homo sapiens); param query = C[C@H]1CN(C(=O)C2CN(Cc3c[nH]c(=O)c(C(F)(F)F)c3)C2)CCN1c1ncc(C(F)(F)F)cn1 [Embodiment 26] ; response: value
7.00 to 8.00

Param readout = pIC50; param system = PARP7 (Homo sapiens); param query = Cc1cc(C(F)(F)F)cnc1N1CCN(C(=O)[C@H]2C[C@H](NCc3cc(C(F)(F)F)c(=O)[nH]n3)C2)CC1 [Embodiment 53] ; response: value
7.00 to 8.00

Param readout = pIC50; param system = PARP7 (Homo sapiens); param query = O=C(C1CN(Cc2cc(C(F)(F)F)c(=O)[nH]n2)C1)N1CCN(c2ncc(C(F)(F)F)cn2)CC1 [Embodiment 5] ; response: value
7.00 to 8.00
